# reported melting point; entries follow

Use the examples below as a reference point.
CCOC(=O)c1cccc(C(=O)CC)c1OCCN(CC)CC; 103 to 105 °C
CCOc1ccccc1-c1ncc(C#N)c(=O)[nH]1; 186 to 187 °C
NNC(=S)NCC1CC(c2ccc(Cl)cc2)=NO1 (centres undefined); 115 to 117 °C

Enquiry: melting point lookup needed for "N#CNC(=NCCO[N+](=O)[O-])c1ccc(N)nc1" , thanks.
Return: 108 °C

Enquiry: melting point lookup needed for "NCCSc1ccc(CCC(=O)O)cc1" , thanks.
Return: 90 to 110 °C

Enquiry: Can you share its melting point? I mean this molecule: "CCOC(=O)C(=O)Nc1cc2c3c(cccc3c1[N+](=O)[O-])C(=O)OC2=O"
Return: 221 to 222 °C

Enquiry: Return reported melting point; argument: "N#Cc1nccn1Cc1cccs1"
Return: 64 to 65 °C

Enquiry: Look up melting point: "Nc1ccc(-c2nccc3[nH]c(=O)ccc23)cc1"
Return: 309 to 312 °C

----------
Measured melting point by item

Worked set:
CC(=O)N1CCC(CCC(=O)c2ccc3c(c2)CCN3c2ccncc2)CC1; 157 to 158 °C
O=[N+]([O-])c1ccc2c(C3=CN4CCC3CC4)c[nH]c2c1; 274 to 276 °C
COC(=O)C1=C(C)NC(C#N)=C(C(=O)OC)C1c1ccccc1[N+](=O)[O-] (stereo not given); 170 to 172 °C
CC(Cl)=CC(C#N)NC(=O)c1cn(C)nc1C (stereo not given); 113 to 114 °C

Now take the following compound into account.
Enquiry: Using the record for "O=C(Cn1cnc2ccccc21)Nc1ccc(-n2nc(C(F)(F)F)cc2C2CC2)cc1" , report its melting point.
Return: 178 to 184 °C

----------
Readout Label: melting point

CC(Oc1ccc(-c2ccc(Cl)cc2)cc1)(C(N)=O)C(F)(F)F (stereo not drawn); 141 to 142 °C

Enquiry: I have this compound here, "O=C(Nc1ccccc1Sc1c(Cl)cncc1Cl)N[C@@H](Cc1ccc(NC(=O)c2c(Cl)cncc2Cl)cc1)C(=O)O" , and I need its recorded melting point.
Return: 211 °C

Enquiry: Look up melting point for this compound: CC(=O)NC(=O)C(SCc1ccccc1)C(c1ccccc1)(c1ccccc1)c1ccccc1 (stereo not drawn)
Return: 184 to 186 °C

----------
Reported melting point values for a set of molecules

Enquiry: # get_value(readout='melting point', item= CCC1(C)OC1COc1ccc(C(=O)c2ccccc2)cc1 (stereo not drawn) )
Return: 66 to 67 °C

Enquiry: Form field: reported melting point of "Fc1ccc(C(=C(c2ccccc2)c2ccc(OCCBr)cc2)C(F)(F)F)cc1"
Return: 115 to 118 °C

Enquiry: melting point lookup needed for "N#Cc1cc(C(F)(F)F)cc(Cl)c1F" , thanks.
Return: 150 to 152 °C

----------
melting point values for the compounds below.

C=COc1ccc(C(=O)c2ccccc2)cc1; 58 °C
COC(=O)CCN(C(=O)CC(O)C(=O)O)N1CCCCC1 (stereo not given); 54 to 57 °C
COc1ccc(C2=NN(c3ccccc3)C(=O)[C@H]3CC=CC[C@@H]23)cc1Cl (relative stereo); 151 to 152 °C

Enquiry: Which melting point is listed for "OCC#Cc1ccc(F)cc1" ?
Return: 32 to 33 °C

Enquiry: // query melting point value for entry "CCC(CC)(CCl)c1cc(Cl)nnc1Cl"
Return: 45 to 47 °C

Enquiry: Entry "Cc1nc2cc(S(=O)(=O)n3c(CCCC(=O)O)cc4nc(Cl)ccc43)ccc2s1" has what melting point?
Return: 173 °C

Enquiry: Given the entry "COCCOc1cc2c(Nc3ccc(Sc4nccn4C)c(Cl)c3)c(C#N)cnc2cc1OCCCN(C)C" , report its measured melting point.
Return: 194 to 203 °C

Enquiry: // returns reported melting point for input "CN(C)S(=O)(=O)Oc1ccc(-c2ccccc2)cc1"
Return: 105 to 107 °C

----------
Readout Label: melting point

CCCCc1oc2ccccc2c1C(=O)Nc1ccc2cc(OCC#N)ccc2c1; 122 to 124 °C

Enquiry: Reported melting point, molecule "CC(=O)SCCN(CCc1ccccc1)C(=O)N[C@@H](Cc1ccc([N+](=O)[O-])cc1)C(=O)NCCC(=O)O" : ____
Return: 114 to 118 °C

Enquiry: melting point for "COP(=O)(CC(=C(c1ccc(F)cc1)c1ccc(F)cc1)c1nnnn1C)OC" ?
Return: 140 to 141 °C

----------
Readout Label: melting point

Sample answers from the record:
CC(=O)NC(CC(C)C)C(=O)N1CC1C#N (racemic); 112 to 116 °C
Cc1nn(C)c(C2=NC(C)C(C)N2)c1N (stereo not drawn); 250 °C

API: the following record is the query input.
Enquiry: Please report the recorded melting point for "COc1ccc2c(ncn2C(=O)OC(C)(C)C)c1CBr" .
Return: 127 to 129 °C

----------
melting point by entry:

O=C(c1cc(=O)c2cc(O)ccc2[nH]1)N1CCC(Cc2ccccc2)CC1; 127 °C
Cc1cc(-c2ccc(C(F)(F)F)cc2)cc(-c2nc(-c3cccc(S(N)(=O)=O)c3)cs2)n1; > 250 °C
CC1(C)c2ccccc2Oc2ncccc21; 72 to 73 °C
COc1ccc(C(=O)COc2ccc(NC3=NCCN3)cc2)cc1; 65.5 to 69 °C

API: the following record is the query input.
Enquiry: Requested read-out: melting point. Entry: CC(C#CC1CCC(Oc2ccc(F)cc2)C1)N(O)C(N)=O (stereo not given)
Return: 95.6 to 96.7 °C

----------
The entries below come with measured melting point values attached.

Enquiry: Please look up its melting point: "Clc1cnc(Sc2ccccc2)nc1"
Return: 47 °C

----------
melting point values by entry

CCCOc1nc2cccc(C(=O)OCC)c2n1Cc1ccc(-c2ccccc2C#N)cc1; 90 to 92 °C
COC(=O)C(NC(=O)C=Cc1ccccc1)C(=O)C(C)C (stereo unspecified); 74 to 75 °C
O=C(O)c1cn(C2CC2)c2c(C(F)(F)F)c(N3CCC(c4ccccn4)C3)c(F)cc2c1=O (stereo unspecified); 210 to 212 °C
COC(=O)c1ccc(OCC(C)NCC(O)c2cccc(Cl)c2)cc1 (stereo unspecified); 99 to 101 °C
N#Cc1cc(N2CCN(CC[C@H]3CC[C@H](NS(=O)(=O)c4cccnc4)CC3)CC2)cc(C(F)(F)F)c1; 194 to 195 °C

Enquiry: Query (molecule): "CC/C(=C\C#CC(O)(C(F)(F)F)C(F)(F)F)c1cccc(CCc2ccc(CO)c(CO)c2)c1" ; field requested: melting point
Return: 123 °C

----------
Readout Label: melting point

CC(C)N1CCN(CCN2CCC(c3noc4cc(F)ccc34)CC2)C1=O; 121 to 123 °C

Enquiry: Given the entry "Cc1ccc(CCN2CCN(c3nsc4ccccc34)CC2)c2c1C(C)(C)CC(=O)N2" , report its measured melting point.
Return: 129 °C

Enquiry: Consider the compound "CCOC(=O)CC[C@H](NC(=O)c1ccc2c(c1)CCN2Cc1cnc2nc(N)nc(N)c2n1)C(=O)OCC" and give its measured melting point.
Return: 168 to 170 °C

Enquiry: What melting point value was documented for this compound, "O=c1ccc2c(-n3cnc([N+](=O)[O-])c3)nccc2[nH]1" ?
Return: 298 to 300 °C

Enquiry: Name the reported melting point value associated with the compound "Cc1nn(-c2ccc(F)cc2)c(C)c1C(=O)Nc1ccc(OCC(C)(C)C)c(C#N)c1"
Return: 174 to 175 °C

----------
Let's look at some molecules and their measured melting point.

Check out these entries, answers already filled in.
CCOC(=O)c1ncn2c1C(C)N=C(c1ccccn1)c1cc(Br)ccc1-2 (stereo unspecified); 193 to 195 °C
Cc1[nH]c(C)c2c1C(C)(C)CC2(C)C#N (stereo unspecified); 130 to 140 °C
CCOC(=O)c1cnc2c(c(C)nc3cc(C)nn32)c1Cl; 143 to 145 °C
Cc1ccnc2c1N=C(C#N)c1cccnc1N2C1CC1; 192 to 193 °C
Cc1[nH]c(C(=O)N2CCC(C(=O)NCCN(C)C)CC2)c(C)c1-c1nc2ccc(C(=O)c3ccccc3)cc2[nH]1; 258 to 260 °C

Enquiry: Returns the measured melting point for the input molecule. Input: "CS(=O)(=O)c1ccc(-c2nc(C(F)(F)F)nc(NN)c2-c2ccccc2)cc1"
Return: 272 to 275 °C

Enquiry: So what does the record say about melting point for "NS(=O)(=O)c1ccc(-c2nc(C(F)(F)F)oc2-c2ccc(Cl)cc2)cc1" ?
Return: 167 to 168 °C

Enquiry: Consider the molecule "CC(C)Cn1c(CNC(=O)OC(C)(C)C)c(-c2cccs2)c2cc(C(N)=O)ccc2c1=O" and give its measured melting point.
Return: 248 to 250 °C

Enquiry: // lookup melting point for "CS(=O)(=O)c1ccc(-c2cnn(-c3ccc(F)c(Cl)c3)c(=O)c2Cc2cccc(F)c2)cc1"
Return: 101 to 103 °C

Enquiry: Would you kindly share the measured melting point for "Clc1ccc(Cn2cc(C3(Cn4ccnc4)CCCC3)c3ccccc32)cc1" ?
Return: 91 to 92 °C

Enquiry: Recorded melting point for "COc1cc2c(Nc3ccc(Cl)cc3F)ncnc2cc1OCCOc1cccnc1" , please?
Return: 188 to 190 °C
